All values here come from patent US20050059726A1.

Target: human Factor Xa (Homo sapiens, UniProt P00742)
Sequence (P00742 235-488 limits assumed): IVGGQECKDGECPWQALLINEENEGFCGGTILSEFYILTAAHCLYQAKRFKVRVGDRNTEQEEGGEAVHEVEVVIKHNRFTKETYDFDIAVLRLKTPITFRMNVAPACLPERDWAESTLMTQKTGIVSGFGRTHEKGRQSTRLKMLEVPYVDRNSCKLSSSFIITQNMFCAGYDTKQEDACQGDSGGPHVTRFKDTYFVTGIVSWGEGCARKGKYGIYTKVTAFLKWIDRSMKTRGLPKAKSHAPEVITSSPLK
Sequence (P00742 41-179 partner limits assumed): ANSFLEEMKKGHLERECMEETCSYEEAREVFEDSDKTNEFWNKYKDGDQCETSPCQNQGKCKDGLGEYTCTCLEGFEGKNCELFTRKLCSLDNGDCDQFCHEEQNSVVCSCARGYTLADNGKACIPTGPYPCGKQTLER
Test: In vitro assay for inhibition of Factor Xa (2), fluorogenic assay
Assay type: biochemical
Conditions: substrate Rhodamine 110, bis-(CBZ-glycylglycyl-L-arginine amide 10 μM), Ki calculated from IC50
Counter-ions that a name gives are not always drawn.
measurement_type: Ki

[
  {
    "compound": "O=C1[C@@H](NS(=O)(=O)c2ccc3cc(Cl)ccc3c2)CCN1c1ccc(N2CCOCC2)c(F)c1",
    "measurement_type": "Ki",
    "value_measured": "< 1 µM"
  },
  {
    "compound": "O=C1[C@@H](NS(=O)(=O)c2ccc3cc(Cl)ccc3c2)CCN1c1ccc(-c2ccoc2)cc1F",
    "measurement_type": "Ki",
    "value_measured": "< 0.2 µM"
  },
  {
    "compound": "C/C(=C\\S(=O)(=O)N[C@H]1CCN(c2ccc(C(=O)N(C)C)cc2F)C1=O)c1ccc(Cl)s1",
    "measurement_type": "Ki",
    "value_measured": "< 0.01 µM"
  },
  {
    "compound": "C/C(=C\\S(=O)(=O)N[C@H]1CCN(c2ccc(-n3ccnc3C[N+](C)(C)CC(N)=O)cc2F)C1=O)c1ccc(Cl)s1 [Example 142, formate]",
    "measurement_type": "Ki",
    "value_measured": "< 0.01 µM"
  },
  {
    "compound": "CN(C)C(=O)c1ccc(N2CC[C@H](N(CC(N)=O)S(=O)(=O)/C=C/c3ccc(Cl)s3)C2=O)c(F)c1",
    "measurement_type": "Ki",
    "value_measured": "< 0.01 µM"
  },
  {
    "compound": "CCC(=O)Nc1ccc(N2CC[C@H](NS(=O)(=O)c3cc4ccc(Cl)cc4s3)C2=O)c(F)c1",
    "measurement_type": "Ki",
    "value_measured": "< 1 µM"
  },
  {
    "compound": "C/C(=C\\S(=O)(=O)N[C@H]1CCN(c2ccc(NS(C)(=O)=O)cc2F)C1=O)c1ccc(Cl)s1",
    "measurement_type": "Ki",
    "value_measured": "< 0.02 µM"
  }
]
